Assay details: qHTS assay to identify small molecule agonists of the endoplasmic reticulum stress response signaling pathway - cell viability counter screen (AID 1159517); further: nearly all actives have a fitted effect of over 50% in size
Particulars: ESRE-bla HeLa viability, CellTiter-Glo luminescence, 5 h; series mostly up to 61 µM
Results filed as inconclusive are left out. Activity calls are given as the source filed them. The call rests on the fitted dose curve.
Use one of these outcomes when replying: active, inactive

## Task # lookup: test call for CCOP(=O)(Sc1ccccc1)Sc1ccccc1
## Result inactive

## Task Entry O=S1OCC2C(CO1)C1(Cl)C(Cl)=C(Cl)C2(Cl)C1(Cl)Cl (stereo not drawn) please
## Result active

## Task Entry O=[N+]([O-])[O-].[Tl+] please
## Result inactive

## Task Entry Fc1ccc(C(OCCN2CCN(CCCc3ccccc3)CC2)c2ccc(F)cc2)cc1 please
## Result active

## Task Entry CCCCN(CCCC)C(=S)S please
## Result inactive

## Task Entry CO/N=C(\C(=O)OC)c1ccccc1CO/N=C(\C)c1cccc(C(F)(F)F)c1 please
## Result inactive

## Task Entry CC(C)c1c(CN(C)C(C)Cc2ccccc2)n(C)n(-c2ccccc2)c1=O (stereo not drawn) please
## Result inactive

## Task Entry CC1(C)[C@H](/C=C2\CCSC2=O)[C@@H]1C(=O)OCc1coc(Cc2ccccc2)c1 please
## Result inactive

## Task Entry CCNc1nc(NC(C)C(C)C)nc(SC)n1 (stereo not drawn) please
## Result inactive

## Task Entry CC(=O)C(Cl)C(=O)N(C)C (stereo not drawn) please
## Result inactive

## Task Entry [Cl][Hg][c]1ccccc1 please
## Result active

## Task Entry Oc1cccc(Cl)c1Cl please
## Result inactive

## Task Entry c1ccc2c(c1)cc1ccc3cccc4ccc2c1c34 please
## Result inactive

## Task Entry CCOP(=O)(OCC)Oc1cc(C)nc(C(C)C)n1 please
## Result inactive

## Task Entry COC(=O)c1cc(Oc2ccc(Cl)cc2Cl)ccc1[N+](=O)[O-] please
## Result inactive

## Task Entry Cc1nn(-c2cc(NS(C)(=O)=O)c(Cl)cc2Cl)c(=O)n1C(F)F please
## Result inactive

## Task Entry Cc1ccc2cc3c(ccc4ccccc43)c3c2c1CC3 please
## Result inactive

## Task Entry CNC(=O)CSP(=O)(OC)OC please
## Result inactive

## Task Entry CC[C@H](C)[C@H]1O[C@]2(C=C[C@@H]1C)C[C@@H]1C[C@@H](C/C=C(\C)[C@@H](O[C@H]3C[C@H](OC)[C@@H](O[C@H]4C[C@H](OC)[C@@H](NC)[C@H](C)O4)[C@H](C)O3)[C@@H](C)/C=C/C=C3\CO[C@@H]4[C@H](O)C(C)=C[C@@H](C(=O)O1)[C@]34O)O2 please
## Result active

## Task Entry Cc1ccn2nc(S(=O)(=O)Nc3c(F)cccc3F)nc2n1 please
## Result inactive

## Task Entry CCC1COC(Cn2cncn2)(c2ccc(Cl)cc2Cl)O1 (stereo not drawn) please
## Result inactive

## Task Entry N#CSCc1ccccc1 please
## Result inactive

## Task Entry CC(Cc1ccc(O)cc1)NCC(O)c1cc(O)cc(O)c1 (stereo not drawn) please
## Result inactive

###

Assay details: A CellTox Green Cytotoxicity Assay to monitor cytotoxicity in HEK293 cells - 16 hour (AID 1224888); further: nearly all actives have a fitted effect of over 35% in size
Particulars: CellTox Green fluorescence; series mostly up to 76.8 µM
Results filed as inconclusive are left out. Activity calls are given as the source filed them. Calls come from the whole dose curve; as a rule, active = well fitted activation curve with a large enough effect in the repeat runs; inconclusive = weak or mixed curves; inactive = flat fitted curve, though single readings scatter.
Use one of these outcomes when replying: active, inactive

## Task # lookup: test call for CC(Cc1ccc(O)cc1)NCC(O)c1cc(O)cc(O)c1 (stereo unspecified)
## Result inactive

## Task Entry COC(=O)c1ccccc1S(=O)(=O)NC(=O)Nc1nc(C)nc(OC)n1 please
## Result inactive

## Task Entry CCN(CC)C(=O)N[C@@H]1C=C2c3cccc4[nH]cc(c34)C[C@@H]2N(C)C1 please
## Result inactive

## Task Entry CC(Cc1ccccc1)N(C)Cc1ccco1 (stereo unspecified) please
## Result inactive

## Task Entry O=S(=O)(O)F please
## Result inactive

## Task Entry CCOP(=O)(Sc1ccccc1)Sc1ccccc1 please
## Result inactive

## Task Entry Cc1cc2c3c(c1)C(c1ccccc1)=N[C@@H](NC(=O)c1ccncc1)C(=O)N3CC2 please
## Result inactive

## Task Entry O=C(NC(=O)c1c(F)cccc1F)Nc1ccc(Oc2ccc(C(F)(F)F)cc2Cl)cc1F please
## Result inactive

## Task Entry O=[N+]([O-])c1cc(C(F)(F)F)c(Cl)c([N+](=O)[O-])c1Nc1ncc(C(F)(F)F)cc1Cl please
## Result active

## Task Entry CC#C[C@]1(O)CC[C@H]2[C@@H]3C[C@H](C)C4=CC(=O)CC[C@]4(C)[C@H]3CC[C@@]21C please
## Result inactive

## Task Entry CNC(=O)CSP(=O)(OC)OC please
## Result inactive

###

Experimental target: Progesterone receptor (Homo sapiens)
Assay details: qHTS assay to identify small molecule agonists of the progesterone receptor (PR) signaling pathway (AID 1346784); further: nearly all actives have a fitted effect of over 30% in size
Particulars: PR-UAS-bla HEK293T, beta-lactamase FRET ratio, 16 h; series mostly up to 92.4 µM
Source text: U.S. Tox21 Program National Center for Advancing Translational Sciences [NCATS] NIH Chemical Genomics Center [NCGC] U.S. Environmental Protection Agency [EPA] National Institutes of Environmental Health Sciences [NIEHS] National Toxicology Program [NTP] U.S. Food and Drug Administration [FDA] […] Endocrine disrupting chemicals (EDCs) and their interactions with steroid hormone receptors like PR causes disruption of normal endocrine function. […]
Results filed as inconclusive are left out. Calls of active or inactive are those of the source. Calls follow the shape of the full dose curve.
Measured quantity: outcome

For orientation, consider the following solved cases.
{"columns": ["Compound", "outcome"],
 "data": [
  ["CN/C(=N\\[N+](=O)[O-])NCc1cnc(Cl)s1", "inactive"],
  ["C=CC(=C)C", "inactive"],
  ["N#Cc1ccc(N(CC(N)=O)CC(F)(F)F)cc1C(F)(F)F", "inactive"],
  ["CCC(C)Br (stereo not drawn)", "inactive"]
]}

## Task Dear colleague, I am looking for the recorded outcome of the following compound: CN(C)CCc1c[nH]c2ccccc12
## Result inactive

## Task Entry COP(=O)(OC)O/C(=C\Cl)c1cc(Cl)c(Cl)cc1Cl please
## Result inactive

## Task Entry Clc1ccc(C(Cl)(Cl)Cl)cc1Cl please
## Result inactive

## Task Entry O=C(O)CCCCCCNC1c2ccccc2CCc2ccccc21 please
## Result inactive

## Task Entry CC(C)C(Nc1ccc(C(F)(F)F)cc1Cl)C(=O)OC(C#N)c1cccc(Oc2ccccc2)c1 (stereo not drawn) please
## Result inactive

## Task Entry CC(=O)[O-].CC(=O)[O-].[Co+2] please
## Result inactive

###

Assay details: qHTS assay to identify small molecule antagonists of the constitutive androstane receptor (CAR) signaling pathway - cell viability counter screen (AID 1224837); further: nearly all actives have a fitted effect of over 45% in size
Particulars: HepG2-CYP2B6-hCAR viability, CellTiter-Fluor, 23 h, co-treated with 50 nM CITCO; series mostly up to 92.4 µM
Results filed as inconclusive are left out. The source made the active and inactive calls. Calls come from the whole dose curve; as a rule, active = well fitted cell-killing curve with a large enough effect in the repeat runs; inconclusive = weak or mixed curves, or effect the other way; inactive = flat fitted curve, though single readings scatter.
Use one of these outcomes when replying: active, inactive

## Task # lookup: test call for CC(=O)[O][Pb]([c]1ccccc1)([c]1ccccc1)[c]1ccccc1
## Result active

## Task Entry N#CCCl please
## Result inactive

## Task Entry CCCCC(CC)COC(=O)OOC(C)(C)C (stereo not drawn) please
## Result inactive

## Task Entry O=S(=O)(NS(=O)(=O)C(F)(F)F)C(F)(F)F please
## Result active

## Task Entry c1ccc(N=NNc2ccccc2)cc1 please
## Result inactive

## Task Entry CCCCC(CC)COC(=O)c1ccccc1C(=O)OCC(CC)CCCC (stereo not drawn) please
## Result inactive

## Task Entry O=[N+]([O-])[O-].[Tl+] please
## Result inactive

## Task Entry CCC(C)Br (stereo not drawn) please
## Result inactive

###

Assay details: qHTS assay to identify small molecule agonists of the sonic hedgehog signaling (Shh) pathway - cell viability counter screen (AID 1259366); further: nearly all actives have a fitted effect of over 50% in size
Particulars: NIH/3T3 Gli1-Luc viability, CellTiter-Fluor, 24 h; series mostly up to 92.4 µM
Records with an inconclusive call do not appear. Active and inactive are the calls of the source. Calls follow the shape of the dose curve; as a rule, active = well fitted cell-killing curve with a large enough effect in the repeat runs; inconclusive = weak or mixed curves, or effect the other way; inactive = flat fitted curve, though single readings scatter.
Use one of these outcomes when replying: active, inactive

## Task # lookup: test call for Cc1ccc2cc3c(ccc4ccccc43)c3c2c1CC3
## Result inactive

## Task Entry O=C(Nc1ccc(F)cc1F)c1cccnc1Oc1cccc(C(F)(F)F)c1 please
## Result inactive

## Task Entry Cc1cccc(Cc2cnc[nH]2)c1C please
## Result inactive

## Task Entry CCOP(=O)(OCC)Oc1cc(C)nc(C(C)C)n1 please
## Result inactive

## Task Entry O=C(O)CCCCCCNC1c2ccccc2CCc2ccccc21 please
## Result inactive

## Task Entry CCC[CH2][Sn]([CH2]CCC)([O]C(C)=O)[O]C(C)=O please
## Result active

## Task Entry O=c1[nH]c(Cl)c(Cl)cc1Cl please
## Result inactive
